FYI, the data here is from the supplement of paper PMC7156485.

The entries below are paired with their reported H1.0 immunofluorescence intensity.
# System: TDF;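 note: TDF is a line of transformed human dermal fibroblasts of mesenchymal origin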
# Test Details: H1.0 immunofluorescence intensity relative to DMSO (% of DMSO); higher = stronger H1.0 induction, active = 120 or more
# Recorded Conditions: concentration: 10 µM; 24 h
Respond with the number and no other words.

Below are worked cases with known answers.
Molecule	Target Of Assay	Result Type	Value Measured
CCCCCC=CCC=CCC=CCCCCCCC(=O)O [Dihomo-γ-linolenic acid]	TDF	H1.0 immunofluorescence intensity	96.3
NS(=O)(=O)c1cc(C2(O)NC(=O)c3ccccc32)ccc1Cl (centres undefined)	TDF	H1.0 immunofluorescence intensity	96.1
CNCCC(Oc1ccc(C(F)(F)F)cc1)c1ccccc1 (centres undefined)	TDF	H1.0 immunofluorescence intensity	100
COc1cc2ncc(-c3ccccc3)nc2cc1OC [Tyrphostin AG 1296]	TDF	H1.0 immunofluorescence intensity	97.3
COC(=O)Nc1nc2ccc(C(=O)c3ccc(F)cc3)cc2[nH]1	TDF	H1.0 immunofluorescence intensity	151

Exercise: Query (molecule): COc1cc(O)c2c(c1)oc(=O)c1c3cc(O)c(O)cc3oc21 ; field requested: H1.0 immunofluorescence intensity
Solution: 101

Exercise: Would you mind telling me what H1.0 immunofluorescence intensity value was observed for COc1cc2c(cc1OC)C(=O)C(CC1CCN(Cc3ccccc3)CC1)C2.Cl.Cl (centres undefined) [Donepezil.HCl] ?
Solution: 95.8
